Tested on: HCT-116
Assay: Antiproliferative activity against human HCT116 cells after 48 hrs by sulforhodamine B assay
Format: functional, cell-based
Conditions: HCT-116, 48 h

| chemical.string | IC50 |
| --- | --- |
| Oc1ccc(Br)cc1/C=N/Cc1cccs1 | 9.1 µM |
